- stated_conditions: postpartum (PP) matched to T2, n=5; geometric mean [range]
measure_name: CLR (renal clearance)

Here is how some molecules turned out for CLR (renal clearance).
C[C@@H]1NC(C)(C)CO[C@@]1(O)c1cccc(Cl)c1 [S,S-OH-BUP] : 0.35 [0.09–3.5] L/h
C[C@H]1NC(C)(C)CO[C@]1(O)c1cccc(Cl)c1 [OH-BUP, hydroxybupropion] : 0.10 [0.02–0.54] L/h
C[C@H]1NC(C)(C)CO[C@]1(O)c1cccc(Cl)c1 [R,R-OH-BUP] : 0.08 [0.02–0.45] L/h
C[C@H](NC(C)(C)C)[C@@H](O)c1cccc(Cl)c1 [Threo, threohydrobupropion] : 2.4 [0.55–17.6] L/h

input: Note down CLR (renal clearance) recorded for CC(NC(C)(C)C)C(O)c1cccc(Cl)c1 (stereo not drawn) [Erythro, erythrohydrobupropion]
output: 1.6 [0.36–9.7] L/h
